- Tested on: myeloid leukemia patient primary cells Pat.5
- experiment: cell viability (% survival relative to DMSO control); higher = less cytotoxic
- measurement.context: 100 nM; 72 h
Kindly apply the following: Met if cell viability is less than 80%, Not met in every other case.

Input `O=C(Oc1cccc(F)c1OC(=O)c1cccc(O)c1)c1cccc(O)c1` ; condition: cell viability strictly below 80%. Does it hold?
Met

Input `CCn1c(=O)/c(=C2\Sc3ccccc3N2C)s/c1=C\c1cccc[n+]1CC.[Cl-]` ; condition: cell viability strictly below 80%. Does it hold?
Not met

Input `Nc1ccn([C@@H]2O[C@H](CO)[C@@H](O)C2(F)F)c(=O)n1` ; condition: cell viability strictly below 80%. Does it hold?
Not met

Input `CC(C)c1onc(-c2c(Cl)cccc2Cl)c1COc1ccc(/C=C/c2cccc(C(=O)O)c2)c(Cl)c1` ; condition: cell viability strictly below 80%. Does it hold?
Met

###

- Tested on: THP-1
- experiment: cell viability (% survival relative to DMSO control, bortezomib = 0%); higher = less cytotoxic
- measurement.context: 1000 nM; 72 h
Counter-ions that a name gives are not always drawn.
Kindly apply the following: rule met if cell viability is less than 90%, rule not met in every other case.

{"columns": ["molecule", "assigned.class"],
 "data": [
  ["Cc1[nH]n(-c2ccccc2)c(=O)c1C1(C(F)(F)F)C(=O)N(c2ccccc2)C2=C1C(=O)CC(C)(C)C2 (configuration not stated)", "rule not met"],
  ["CC(C)(O)CNc1nc(Nc2ccnc(C(F)(F)F)c2)nc(-c2cccc(C(F)(F)F)n2)n1", "rule not met"],
  ["N[C@@H](CCC(=O)N[C@@H](CS)C(=O)NCC(=O)O)C(=O)O", "rule not met"],
  ["CN(C)C(=O)n1nnnc1Cc1ccc(-c2ccccc2)cc1", "rule met"],
  ["NC(CCC(=O)NC(CSCc1ccc(Br)cc1)C(=O)NCC(=O)OC1CCCC1)C(=O)OC1CCCC1 (configuration not stated)", "rule not met"]
]}

Input `CC(C)(CCCCCCCCCCC(C)(C)CC(=O)O)CC(=O)O` ; condition: cell viability strictly below 90%. Does it hold?
rule not met

Input `c1ccc2c(c1)SCc1c-2[nH]c2ccccc12` ; condition: cell viability strictly below 90%. Does it hold?
rule not met

Input `Nc1ccn([C@@H]2O[C@H](CO)[C@@H](O)C2(F)F)c(=O)n1` ; condition: cell viability strictly below 90%. Does it hold?
rule met

Input CCC(CC#N)OC(=O)N[C@@H](C)c1cccc(NC(=O)Nc2ccc(-c3cnco3)c(OC)c2)c1 (stereo in doubt) ; condition: cell viability strictly below 90%. Does it hold?
rule met

Input CC(C)(Cc1ccccc1)NCC(O)c1ccc(O)c(NS(C)(=O)=O)c1 (configuration not stated) [Zinterol hydrochloride] ; condition: cell viability strictly below 90%. Does it hold?
rule not met

Input `CCCC(CCC)C(=O)O` ; condition: cell viability strictly below 90%. Does it hold?
rule not met

Input `CC(C)(F)C[C@H](N[C@@H](c1ccc(-c2ccc(S(C)(=O)=O)cc2)cc1)C(F)(F)F)C(=O)NC1(C#N)CC1` ; condition: cell viability strictly below 90%. Does it hold?
rule not met

Input OC[C@H]1OC(O)C[C@@H](O)[C@@H]1O (some centres not stated) ; condition: cell viability strictly below 90%. Does it hold?
rule met
